- target-or-test-system: T1, human CD300LB on primary human macrophages (human, UniProt A8K4G0 18-201)
- T1 sequence: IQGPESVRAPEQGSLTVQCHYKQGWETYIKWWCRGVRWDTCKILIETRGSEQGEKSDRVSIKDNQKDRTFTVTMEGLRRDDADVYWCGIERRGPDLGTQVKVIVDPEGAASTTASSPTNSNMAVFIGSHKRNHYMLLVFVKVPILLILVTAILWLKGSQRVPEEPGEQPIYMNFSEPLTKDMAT
- procedure-summary: flow cytometry, primary human macrophages donor 1277, 10 ug/mL antibody, isotype control subtracted
quantity-name: gMFI
Give your result as the value with the unit written after it.

binder	reported-value
anti-CD300LB antibody CD-08 (antibody, V domains shown) VH: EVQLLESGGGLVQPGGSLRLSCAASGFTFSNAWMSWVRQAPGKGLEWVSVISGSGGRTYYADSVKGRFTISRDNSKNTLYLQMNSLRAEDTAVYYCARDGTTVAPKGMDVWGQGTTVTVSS VL: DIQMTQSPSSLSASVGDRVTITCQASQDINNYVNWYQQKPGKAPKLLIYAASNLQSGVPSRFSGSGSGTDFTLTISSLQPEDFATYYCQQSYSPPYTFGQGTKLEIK	2800 gMFI
anti-CD300LB antibody CD-05 (antibody, V domains shown) VH: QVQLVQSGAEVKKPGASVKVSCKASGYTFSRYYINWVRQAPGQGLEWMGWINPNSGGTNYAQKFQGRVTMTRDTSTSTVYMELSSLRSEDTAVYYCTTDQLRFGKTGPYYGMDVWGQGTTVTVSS VL: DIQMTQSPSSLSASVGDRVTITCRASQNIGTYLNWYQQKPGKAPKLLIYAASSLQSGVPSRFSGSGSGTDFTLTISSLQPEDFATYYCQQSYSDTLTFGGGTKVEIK	68600 gMFI
anti-CD300LB antibody CD-09 (antibody, V domains shown) VH: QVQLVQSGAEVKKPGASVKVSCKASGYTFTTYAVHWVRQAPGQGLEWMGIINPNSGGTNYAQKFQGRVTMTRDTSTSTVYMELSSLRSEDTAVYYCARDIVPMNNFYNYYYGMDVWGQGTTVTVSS VL: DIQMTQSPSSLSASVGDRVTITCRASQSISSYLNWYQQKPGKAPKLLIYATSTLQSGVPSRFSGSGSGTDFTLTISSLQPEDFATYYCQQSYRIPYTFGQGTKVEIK	15700 gMFI

QUERY: Report gMFI for anti-CD300LB antibody CD-07 (antibody, V domains shown) VH: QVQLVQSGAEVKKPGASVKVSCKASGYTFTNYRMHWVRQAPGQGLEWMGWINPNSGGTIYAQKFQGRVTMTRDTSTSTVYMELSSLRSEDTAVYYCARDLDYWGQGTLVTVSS VL: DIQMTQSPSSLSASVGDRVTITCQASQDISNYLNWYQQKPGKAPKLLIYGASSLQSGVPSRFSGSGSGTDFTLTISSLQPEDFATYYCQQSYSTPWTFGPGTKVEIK
RESULT: 3790 gMFI

The measurements presented in this section are drawn from patent US20240254227A1.
